Reference for the values: patent US5041567A

Test system: Strep. agalactiae SPA1
Experiment Summary: MIC against veterinary bacteria in vitro
Test Context: Streptococcus agalactiae, SPA1, 18 h
Catalogue of molecules with associated MIC

Molecule	System	Unit Spec	MIC
C/C(=C\c1ncc(-c2ccc(C=O)cc2)o1)C[C@@H]1OC[C@H](C[C@@H]2O[C@H]2[C@@H](C)[C@H](C)O)[C@@H](O)[C@H]1O [Example 15]	Strep. agalactiae SPA1	µg/mL	1.25
C/C(=C\c1ncc(-c2ccc(S(C)(=O)=O)cc2)o1)C[C@@H]1OC[C@H](C[C@@H]2O[C@H]2[C@@H](C)[C@H](C)O)[C@@H](O)[C@H]1O [Example 10]	Strep. agalactiae SPA1	µg/mL	2.5
C/C(=C\c1nc(-c2ccccc2)c(-c2ccccc2)o1)C[C@@H]1OC[C@H](C[C@@H]2O[C@H]2[C@@H](C)[C@H](C)O)[C@@H](O)[C@H]1O [Example 41, 4,5-Diphenyl-2-(1-normon-2-yl)oxazole A]	Strep. agalactiae SPA1	µg/mL	40
C/C(=C/c1ncc(-c2ccccc2)o1)C[C@@H]1OC[C@H](C[C@@H]2O[C@H]2[C@@H](C)[C@H](C)O)[C@@H](O)[C@H]1O [Example 2]	Strep. agalactiae SPA1	µg/mL	20
C/C(=C\c1ncc(-c2ccsc2)o1)C[C@@H]1OC[C@H](C[C@@H]2O[C@H]2[C@@H](C)[C@H](C)O)[C@@H](O)[C@H]1O [Example 20]	Strep. agalactiae SPA1	µg/mL	1.25
C/C(=C\c1ncc(-c2ccc(S(=O)(=O)N(C)C)cc2)o1)C[C@@H]1OC[C@H](C[C@@H]2O[C@H]2[C@@H](C)[C@H](C)O)[C@@H](O)[C@H]1O [Example 24]	Strep. agalactiae SPA1	µg/mL	1.25
C/C(=C\c1cc(-c2ccccc2)on1)C[C@@H]1OC[C@H](C[C@@H]2O[C@H]2[C@@H](C)[C@H](C)O)[C@@H](O)[C@H]1O [Example 34, 3-(1-Normon-2-yl)-5-phenylisoxazole A]	Strep. agalactiae SPA1	µg/mL	40
C/C(=C\c1ncc(-c2ccc([N+](=O)[O-])cc2)o1)C[C@@H]1OC[C@H](C[C@@H]2O[C@H]2[C@@H](C)[C@H](C)O)[C@@H](O)[C@H]1O [Example 3]	Strep. agalactiae SPA1	µg/mL	1.25
C/C(=C\c1ncc(-c2cccc(S(C)(=O)=O)c2)o1)C[C@@H]1OC[C@H](C[C@@H]2O[C@H]2[C@@H](C)[C@H](C)O)[C@@H](O)[C@H]1O [Example 23]	Strep. agalactiae SPA1	µg/mL	2.5
C/C(=C\c1ncc(-c2ccccc2)s1)C[C@@H]1OC[C@H](C[C@@H]2O[C@H]2[C@@H](C)[C@H](C)O)[C@@H](O)[C@H]1O [Example 29, 2-(1-Normon-2-yl)-5-phenylthiazole A]	Strep. agalactiae SPA1	µg/mL	40
C/C(=C\c1ncc(-c2ccc(CO)cc2)o1)C[C@@H]1OC[C@H](C[C@@H]2O[C@H]2[C@@H](C)[C@H](C)O)[C@@H](O)[C@H]1O [Example 13]	Strep. agalactiae SPA1	µg/mL	10

====

Listed below: MIC values for each entry.
System: Haemophilus influenzae Wy21
Experiment Summary: MIC against human bacteria in vitro
Assay type: cell-based
Test Context: Haemophilus influenzae Wy21; 5% chocolated horse blood agar, 18 hours; read-out: MIC

Smiles Data	System	Unit Spec	MIC
C/C(=C\c1ncc(-c2ccc(S(=O)(=O)N(C)C)cc2)o1)C[C@@H]1OC[C@H](C[C@@H]2O[C@H]2[C@@H](C)[C@H](C)O)[C@@H](O)[C@H]1O	Haemophilus influenzae Wy21	µg/mL	4
C/C(=C\c1ncc(CCCCCCCCO)o1)C[C@@H]1OC[C@H](C[C@@H]2O[C@H]2[C@@H](C)[C@H](C)O)[C@@H](O)[C@H]1O	Haemophilus influenzae Wy21	µg/mL	4
C/C(=C\c1nc(-c2ccccc2)c(-c2ccccc2)o1)C[C@@H]1OC[C@H](C[C@@H]2O[C@H]2[C@@H](C)[C@H](C)O)[C@@H](O)[C@H]1O	Haemophilus influenzae Wy21	µg/mL	25
